target: MPER peptide PDT-081 (HIV-1); assay: BLI on PDT-081
Recorded kon values for a group of binders are listed next.

| Binder | kon |
| --- | --- |
| H4K3_SFS28EPE Fab (Fab, V domains shown) VH: KVQLVQSGAELKKPWSSVRVSCKASGGEPESYAFNWVRQAPGQRLEWLGGIVPLVSSTNYAQRFRGRVTISADRSTSTVYLEMTGLTSADTAVYFCAREGEGWFGRPLRAFEFWGQGTLVTVST VL: EIVLTQSPGTFALSPGERATLSCRASQSVSGGALAWYQQKAGQAPRLLIYDTSGRATGVPGRFSGSGSETDFSLTISRLEPEDFAVYYCQQYGTSQSTFGQGTRLETR | 36000 M⁻¹ s⁻¹ |
| PGZL1.H4K3 Fab (Fab, V domains shown) VH: KVQLVQSGAELKKPWSSVRVSCKASGGSFSSYAFNWVRQAPGQRLEWLGGIVPLVSSTNYAQRFRGRVTISADRSTSTVYLEMTGLTSADTAVYFCAREGEGWFGRPLRAFEFWGQGTLVTVST VL: EIVLTQSPGTFALSPGERATLSCRASQSVSGGALAWYQQKAGQAPRLLIYGTSGRATGVPGRFSGSGSETDFSLTISRLEPEDFAVYYCQQYGTSQSTFGQGTRLETR | 68000 M⁻¹ s⁻¹ |
| H4K3_5M Fab (Fab, V domains shown) VH: KVQLVQSGAELKKPWSSVRVSCKASGGEPESYAFNWVRQAPGQRLEWLGGIVPLVSSTNYAQRFRGRVTISADPETSTVYLEMTGLTSADTAVYFCAREGEGWFGRPLRAFEFWGQGTLVTVST VL: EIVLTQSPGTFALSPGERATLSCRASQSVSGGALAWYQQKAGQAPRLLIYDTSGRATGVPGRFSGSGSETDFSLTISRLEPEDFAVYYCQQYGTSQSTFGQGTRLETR | 29000 M⁻¹ s⁻¹ |
| H4K3_RS73PE Fab (Fab, V domains shown) VH: KVQLVQSGAELKKPWSSVRVSCKASGGSFSSYAFNWVRQAPGQRLEWLGGIVPLVSSTNYAQRFRGRVTISADPETSTVYLEMTGLTSADTAVYFCAREGEGWFGRPLRAFEFWGQGTLVTVST VL: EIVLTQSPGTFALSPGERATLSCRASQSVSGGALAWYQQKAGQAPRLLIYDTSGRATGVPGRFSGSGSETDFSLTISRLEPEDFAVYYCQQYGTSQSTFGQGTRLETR | 39000 M⁻¹ s⁻¹ |
